Below, each entry is listed alongside its reported Papp at 3 h, 1 μM.
assay: Assay for determination of apparent permeability (Papp), bi-directional transport; assay type: in vitro ADME; conditions: pig, LLC-PK1; 1 μM test compound, t=3 h, average of A to B and B to A; read-out: Papp LLC-PK1 cells
Entry rule: numbers only, all in ×10⁻⁶ cm/s.

Use the examples below as a reference point.
INSERT INTO results (molecule, numericvalue) VALUES
  ('CCNC1=N[C@@H]2C[C@H](O)[C@@H]([C@H](C)O)O[C@@H]2S1 [Example 13]', 2.3),
  ('CNC1=N[C@@H]2C[C@H](O)[C@@H]([C@@H](O)C(F)(F)F)O[C@@H]2S1 [Example 20]', 3.4),
  ('C[C@H](O)[C@H]1O[C@@H]2SC(N(C)C)=N[C@@H]2[C@@H](F)[C@@H]1O [Example 5]', 14),
  ('CC[C@H]1O[C@@H]2SC(NC)=N[C@@H]2[C@@H](F)[C@@H]1O [Example 15]', 34),
  ('CNC1=N[C@@H]2[C@H](F)[C@H](O)[C@@H]([C@@H](O)C(F)(F)F)O[C@@H]2S1 [Example 38]', 3.7),
  ('CNC1=N[C@@H]2[C@H](F)[C@H](O)[C@@H]([C@H](C)O)O[C@@H]2S1 [Example 34]', 1.9),
  ('CNC1=N[C@@H]2[C@@H](F)[C@H](O)[C@@H]([C@@H](O)C(F)(F)F)O[C@@H]2S1 [Example 9]', 6.6),
  ('CCNC1=N[C@@H]2[C@H](F)[C@H](O)[C@@H]([C@@H](C)O)O[C@@H]2S1 [Example 37]', 2.1),
  ('CCNC1=N[C@@H]2[C@@H](F)[C@H](O)[C@@H]([C@@H](O)C(F)(F)F)O[C@@H]2S1 [Example 7]', 15);

Here's the next entry for you.
## Input Provide measured Papp at 3 h, 1 μM value, entry: CNC1=N[C@@H]2[C@H](F)[C@H](O)[C@@H](C(C)(C)O)O[C@@H]2S1 [Example 43]
## Output 2.4

* * *

test: Assay for determination of apparent permeability (Papp), bi-directional transport; format: in vitro ADME; settings: pig, LLC-PK1; 1 μM test compound, t=3 h, average of A to B and B to A; read-out: Papp LLC-PK1 cells
Parameter: Papp at 3 h, 1 μM. Scope: all listed entries.
Answer with a number only, understood to be in ×10⁻⁶ cm/s.

INSERT INTO results (smilesstr, numericvalue) VALUES
  ('CN(C)C1=N[C@@H]2[C@@H](F)[C@H](O)[C@@H]([C@@H](O)C(F)(F)F)O[C@@H]2S1', 23),
  ('CCNC1=N[C@@H]2[C@@H](F)[C@H](O)[C@@H]([C@H](C)O)O[C@@H]2S1', 5.2),
  ('O[C@H]1[C@H](F)[C@H]2N=C(N3CCC3)S[C@H]2O[C@@H]1[C@@H](O)C(F)(F)F', 21);

Next:
## Input Supply measured Papp at 3 h, 1 μM of `CNC1=N[C@@H]2[C@@H](F)[C@H](O)[C@@H]([C@H](C)O)O[C@@H]2S1` in your reply.
## Output 3.3

* * *

target: human O-GlcNAcase (Homo sapiens (Human))
Sequence (O60502 whole entry): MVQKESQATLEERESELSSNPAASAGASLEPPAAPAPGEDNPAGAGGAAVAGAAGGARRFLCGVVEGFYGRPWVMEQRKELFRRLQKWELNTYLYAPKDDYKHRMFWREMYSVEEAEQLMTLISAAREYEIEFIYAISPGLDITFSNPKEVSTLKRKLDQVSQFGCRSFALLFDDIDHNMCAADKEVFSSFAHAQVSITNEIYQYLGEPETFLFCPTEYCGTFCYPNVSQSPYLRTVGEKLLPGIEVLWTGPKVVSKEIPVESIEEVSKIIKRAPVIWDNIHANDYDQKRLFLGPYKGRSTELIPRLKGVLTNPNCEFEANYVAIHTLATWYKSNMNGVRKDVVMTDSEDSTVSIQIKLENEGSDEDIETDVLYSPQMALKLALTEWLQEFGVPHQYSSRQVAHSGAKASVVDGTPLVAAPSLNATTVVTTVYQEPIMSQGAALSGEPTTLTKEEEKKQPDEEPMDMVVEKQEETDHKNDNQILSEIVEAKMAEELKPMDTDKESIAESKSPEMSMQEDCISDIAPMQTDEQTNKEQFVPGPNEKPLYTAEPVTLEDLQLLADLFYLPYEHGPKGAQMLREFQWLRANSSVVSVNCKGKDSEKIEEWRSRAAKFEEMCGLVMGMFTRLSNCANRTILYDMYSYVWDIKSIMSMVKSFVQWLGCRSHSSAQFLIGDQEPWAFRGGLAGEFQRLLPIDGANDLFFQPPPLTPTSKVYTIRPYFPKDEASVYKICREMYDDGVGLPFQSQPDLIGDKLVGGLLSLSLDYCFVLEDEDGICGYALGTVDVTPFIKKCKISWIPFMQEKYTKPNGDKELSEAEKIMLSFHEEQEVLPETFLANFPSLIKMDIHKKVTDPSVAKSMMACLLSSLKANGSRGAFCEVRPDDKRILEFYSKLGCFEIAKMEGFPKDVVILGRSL
Rule: Ki below 4 nM gives met, anything at or above gives not met.

INSERT INTO measurements (smilesstr, assignedcategory) VALUES
  ('CNC1=N[C@@H]2[C@@H](F)[C@H](O)[C@@H]([C@@H](O)C(F)(F)F)O[C@@H]2S1', 'met'),
  ('CNC1=N[C@@H]2C[C@H](O)[C@@H]([C@@H](O)C(F)(F)F)O[C@@H]2S1', 'met'),
  ('CNC1=N[C@@H]2C[C@H](O)[C@@H]([C@@](C)(O)C(F)(F)F)O[C@@H]2S1', 'not met'),
  ('CC[C@H]1O[C@@H]2SC(NC)=N[C@@H]2[C@H](F)[C@@H]1O', 'not met'),
  ('CCNC1=N[C@@H]2[C@@H](F)[C@H](O)[C@@H]([C@@H](O)C(F)(F)F)O[C@@H]2S1', 'not met');

// next entry
## Input Please let me know if `CNC1=N[C@@H]2[C@H](F)[C@H](O)[C@@H]([C@@H](O)C(F)(F)F)O[C@@H]2S1` shows Ki below 4 nM.
## Output met

* * *

molecular target: O-GlcNAcase (Rattus norvegicus (Rat)); experiment: Cell-based ELISA of O-GlcNAcylated protein (RL-2 antibody) for cellular activity of O-GlcNAcase inhibitors; conditions: rat PC-12 cells, 24 h treatment, O-GlcNAcylated protein detected with RL-2 antibody
Sequence (Q8VIJ5 whole entry): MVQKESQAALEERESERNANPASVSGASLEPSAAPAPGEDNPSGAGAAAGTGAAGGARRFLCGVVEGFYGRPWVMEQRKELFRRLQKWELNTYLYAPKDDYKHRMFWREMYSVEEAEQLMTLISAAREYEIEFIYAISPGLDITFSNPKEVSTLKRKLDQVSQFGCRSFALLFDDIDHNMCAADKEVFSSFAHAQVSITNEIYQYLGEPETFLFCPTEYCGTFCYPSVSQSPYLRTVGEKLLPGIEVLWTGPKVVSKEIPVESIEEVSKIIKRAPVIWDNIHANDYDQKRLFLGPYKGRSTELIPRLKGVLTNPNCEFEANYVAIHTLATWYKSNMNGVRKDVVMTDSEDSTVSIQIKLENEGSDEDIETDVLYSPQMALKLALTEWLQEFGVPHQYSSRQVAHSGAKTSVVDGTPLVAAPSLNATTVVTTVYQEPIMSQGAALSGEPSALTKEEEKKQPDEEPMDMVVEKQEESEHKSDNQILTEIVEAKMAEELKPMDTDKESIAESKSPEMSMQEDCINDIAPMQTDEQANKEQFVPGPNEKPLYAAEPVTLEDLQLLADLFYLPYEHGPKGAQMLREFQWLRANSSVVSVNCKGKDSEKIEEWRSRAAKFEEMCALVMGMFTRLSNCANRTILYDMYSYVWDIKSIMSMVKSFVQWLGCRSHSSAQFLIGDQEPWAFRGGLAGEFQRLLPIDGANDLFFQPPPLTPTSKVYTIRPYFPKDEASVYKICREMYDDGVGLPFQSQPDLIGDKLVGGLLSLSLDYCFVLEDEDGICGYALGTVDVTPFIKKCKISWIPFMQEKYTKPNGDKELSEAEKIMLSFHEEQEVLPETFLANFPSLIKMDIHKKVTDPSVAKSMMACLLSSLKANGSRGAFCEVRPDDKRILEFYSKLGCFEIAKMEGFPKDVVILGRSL
propertyName: pEC50
Just the number, please; pEC50 means minus log10 of the concentration in mol/L.

INSERT INTO assay_data (smilesstr, numericvalue) VALUES
  ('CNC1=N[C@@H]2[C@H](F)[C@H](O)[C@@H]([C@@H](O)C(F)(F)F)O[C@@H]2S1', 8.04),
  ('CNC1=N[C@@H]2[C@@H](F)[C@H](O)[C@@H]([C@@H](O)C(F)(F)F)O[C@@H]2S1', 7.13);

Next up:
## Input Fill in pEC50 for `CNC1=N[C@@H]2C[C@H](O)[C@@H]([C@@H](O)C(F)(F)F)O[C@@H]2S1` tested with O-GlcNAcase (Rattus norvegicus (Rat)).
## Output 7.30
